Each entry below carries its reported Solubility.
test: Determination of solubility in deionized water (HPLC, external standard); settings: 25±2° C., after 30 min
Kindly answer with a numeric value in mg/mL, unit omitted.

# compound, readout.units, Solubility
records = [
    ("CCC(O[C@@H](C)[C@H](CC)n1ncn(-c2ccc(N3CCN(c4ccc(OC[C@@H]5CO[C@@](Cn6cncn6)(c6ccc(F)cc6F)C5)cc4)CC3)cc2)c1=O)OP(=O)([O-])[O-].[Na+].[Na+] (stereo partly drawn) [ST0093]", "mg/mL", 27.9),
    ("CC[C@@H]([C@H](C)OC(=O)OC(C)OC(=O)CN(C)P(=O)([O-])[O-])n1ncn(-c2ccc(N3CCN(c4ccc(OC[C@@H]5CO[C@@](Cn6cncn6)(c6ccc(F)cc6F)C5)cc4)CC3)cc2)c1=O.[Na+].[Na+] (stereo partly drawn) [ST0054]", "mg/mL", 40.9),
]

Let's switch to this compound now.
[ask] What does the record list as Solubility for CC[C@@H]([C@H](C)OC(=O)OC(C)OC(=O)CNP(=O)([O-])[O-])n1ncn(-c2ccc(N3CCN(c4ccc(OC[C@@H]5CO[C@@](Cn6cncn6)(c6ccc(F)cc6F)C5)cc4)CC3)cc2)c1=O.[Na+].[Na+] (stereo partly drawn) [ST0055] ?
[reply] 35.4

* * *

tested on: Candida albicans ATCC10231; test: Systemic fungal infection in mice, intravenous administration; assay type: in vivo, ICR mice; conditions: 96 h, read-out: survival rate of mice, day 4
Form field: responders at 20 mg/kg (one value per entry).
Field: numeric (%). Do not append units.

Worked examples, 4 molecules total:
# molecule, responders at 20 mg/kg (%)
rows = [
    ("CC[C@@H]([C@H](C)O)n1ncn(-c2ccc(N3CCN(c4ccc(OC[C@@H]5CO[C@@](Cn6c[n+](C(C)OC(=O)N(C)c7ncccc7COC(=O)[C@@H](N)CC(N)=O)cn6)(c6ccc(F)cc6F)C5)cc4)CC3)cc2)c1=O (some centres unmarked)", 100),
    ("CC[C@@H](C(C)OC(=O)OC(C)OC(=O)CCCCCCOP(=O)([O-])[O-])n1ncn(-c2ccc(N3CCN(c4ccc(OC[C@@H]5CO[C@@](Cn6cncn6)(c6ccc(F)cc6F)C5)cc4)CC3)cc2)c1=O.[Na+].[Na+] (some centres unmarked)", 90),
    ("CC[C@@H]([C@H](C)OC(=O)OCOC(=O)CCCCCOP(=O)([O-])[O-])n1ncn(-c2ccc(N3CCN(c4ccc(OC[C@@H]5CO[C@@](Cn6cncn6)(c6ccc(F)cc6F)C5)cc4)CC3)cc2)c1=O.[Na+].[Na+]", 100),
    ("CC[C@@H]([C@H](C)O)n1ncn(-c2ccc(N3CCN(c4ccc(OC[C@@H]5CO[C@@](Cn6c[n+](C(C)OC(=O)N(C)c7ncccc7COC(=O)CN)cn6)(c6ccc(F)cc6F)C5)cc4)CC3)cc2)c1=O (some centres unmarked)", 100),
]

Switching to the query record.
[ask] Give its responders at 20 mg/kg value. Item: CC[C@@H]([C@H](C)O)n1ncn(-c2ccc(N3CCN(c4ccc(OC[C@@H]5CO[C@@](Cn6c[n+](C(C)OC(=O)N(C)c7ncccc7COC(=O)[C@@H](N)CCCN)cn6)(c6ccc(F)cc6F)C5)cc4)CC3)cc2)c1=O (some centres unmarked)
[reply] 100
